- experimental.target: TRIP13 (Homo sapiens)
- Construct: full length, 1-432 aa, N-GST-tagged
- Sequence (Q15645 whole entry, the tested form may be a part): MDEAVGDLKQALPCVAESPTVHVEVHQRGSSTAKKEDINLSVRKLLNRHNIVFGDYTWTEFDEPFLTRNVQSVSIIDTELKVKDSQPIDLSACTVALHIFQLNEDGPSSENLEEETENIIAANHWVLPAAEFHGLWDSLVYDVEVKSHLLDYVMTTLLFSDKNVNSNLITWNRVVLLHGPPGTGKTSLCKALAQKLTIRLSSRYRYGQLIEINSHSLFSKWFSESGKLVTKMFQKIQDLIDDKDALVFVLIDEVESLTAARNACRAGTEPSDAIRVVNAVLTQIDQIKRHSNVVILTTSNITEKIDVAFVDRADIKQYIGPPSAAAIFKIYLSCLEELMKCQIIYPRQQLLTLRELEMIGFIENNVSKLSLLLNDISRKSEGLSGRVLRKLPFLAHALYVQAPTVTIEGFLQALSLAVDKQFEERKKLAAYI
- experiment.summary: ADP-Glo ATPase dose-response ([…] TRIP13, […] ATP) with ADP counter-screen; also CETSA in HeLa cells
recorded.metric: pIC50
Lab note: report pIC50 as minus log10 of the concentration in molar units, number only.

Noted for COc1cc2c(Oc3ccc4[nH]c(C)cc4c3F)ccnc2cc1OCC1(N)CC1 [anlotinib] : its pIC50 reads 5.26
